System: NCI-H23 lung
Assay: NCI tumour cell line growth inhibition, 48 h
reported endpoint: TGI

1. Clc1nc(Cl)c2ncn(C/C=C\Cn3cnc4c(Cl)nc(Cl)nc43)c2n1 ... 5.11 µM
2. CC(=O)c1c2c(cc3c1CC1(Cc4cc5c(cc4C1)CCC5)C3)CCC2 ... > 100 µM
3. O=C(O)CCC(=O)Nc1ccc2c(c1)S(=O)(=O)N(CC(=O)O)C2=O ... > 100 µM
4. O=C1/C(=C/c2cccc([N+](=O)[O-])c2)COc2ccccc21 ... 18.2 µM
5. C1CSCC2(COC2)CS1 ... > 100 µM
6. CC1C(=O)N=C2C(=CN(Cc3ccccc3)c3ccccc32)C(=O)N1C (stereo not given) ... > 100 µM
7. Cc1ccc2c(ccc3c[n+]4ccccc4c(C)c32)c1 ... 10.9 µM
8. CN(C)c1ccc(C2CC(=O)CC(c3ccc(N(C)C)cc3)C23C(=O)NC(=O)NC3=O)cc1 (stereo not given) ... > 25 µM
9. CCN(CC)CCC(=O)Nc1cccc2c1C(=O)c1c(c(O)c3ccccc3c1O)C2=O ... > 100 µM
10. CC[C@@]1(O)C(=O)NCc2c1cc1n(c2=O)Cc2cc3cc4c(cc3nc2-1)OCO4 ... > 13.2 µM

----------
Tested on: HCT-15 colon
Assay: NCI tumour cell line growth inhibition, 48 h
reported endpoint: TGI

1) CCCCCCCCCCCCCCCC(=O)NC1CCc2cc(O)c(O)c(O)c2-c2ccc(SC)c(=O)cc21 (configuration not stated) ... 15.5 µM
2) O=C1N=C2c3c(sc4c3CCCC4)N=CN2C1N=Nc1ccc(Cl)cc1 (configuration not stated) ... > 100 µM
3) Cc1cccc2c3c(sc12)C(c1ccc(Cl)cc1)C(C#N)=C(/N=C/c1ccc(Cl)cc1)O3 (configuration not stated) ... > 100 µM
4) COc1cc(C)cc2c1OC(c1ccccc1)CC2=O (configuration not stated) ... > 100 µM
5) CCn1c(=O)c2c(=O)[nH][nH]c2c2ccccc21 ... > 100 µM
6) Nc1ccc(N=Nc2ccc(/C=C/c3ccc(N=Nc4ccc(N)c5ccc(S(=O)(=O)O)cc45)cc3S(=O)(=O)O)c(S(=O)(=O)O)c2)c2cc(S(=O)(=O)O)ccc12 ... > 100 µM
7) Oc1cn(-c2ccc(Cl)cc2)nc1-c1nnc(Nc2ccccc2)o1 ... 28 µM
8) O=c1c2cc(Br)ccc2oc2ccc(Br)cc12 ... > 100 µM
9) CCN(CC)c1ccc(/C=C/C2=NN(c3cccc(S(=O)(=O)O)c3)C3(C2)C(Cl)C(=O)N3c2nc3ccccc3s2)cc1 (configuration not stated) ... 24.1 µM
10) Fc1ccc(C(OCCN2CCC3CCC(C2)N3CCCc2ccccc2)c2ccc(F)cc2)cc1 (configuration not stated) ... 14.5 µM
11) COc1ccccc1NC(=O)CC(=O)n1nc(C)c(N=Nc2ccccc2F)c1C ... > 100 µM
12) C/C(=N\NC(=S)N(C)C)c1ncc[nH]1 ... > 100 µM
13) O=S(=O)(CC1=NC2C=CC=CC2N=C1)NCc1ccccc1 (configuration not stated) ... > 100 µM
14) O=c1cc(-c2ccc(O)c(O)c2)oc2cc(OC3OC(CO)C(O)C(O)C3O)cc(O)c12 (configuration not stated) ... > 100 µM
15) CNC(=O)c1cc(Oc2ccc3nc(NC(=O)Nc4ccc(Cl)c(Cl)c4)sc3c2)ccn1 ... > 100 µM
16) O=C(Oc1ccccc1)c1cc(O)c(O)c(O)c1 ... > 100 µM
17) FC(F)(F)c1ccc2c(c1)N(CCCN1CCN(C3CC3)CC1)c1ccccc1S2 ... 18.6 µM
18) CC(=O)/C=C1/c2ccccc2N(C(C)=O)C1O (configuration not stated) ... > 100 µM
19) O=C(Nc1ccc(C(F)(F)F)cc1[N+](=O)[O-])C(=O)C(C(=O)c1ccc2ccccc2c1)C1OC(=O)c2ccccc21 (configuration not stated) ... 51.4 µM
20) N#C/C(=C\c1cn(-c2ccccc2)c2ccccc12)C(=O)O ... > 100 µM
21) S=C(Nc1ccccc1)c1ccccn1 ... > 100 µM
22) C/C(=N\NC(N)=S)c1ccc2c(c1)OCO2 ... > 100 µM
23) O=C(CNC(=O)OCc1ccccc1)NCCCCC(NC(=O)OCc1ccccc1)C(=O)O (configuration not stated) ... > 100 µM
24) CC1C(=O)N=C2C(=CN(Cc3ccccc3)c3ccccc32)C(=O)N1C (configuration not stated) ... > 100 µM
25) CCOC(=O)CNC(=O)C(CSC(=O)N(O)c1ccc(Br)cc1)NC(=O)CCC(N)C(=O)OCC (configuration not stated) ... > 50 µM
26) C/C(=N\NC(N)=S)c1ccc(/C(C)=N/NC(N)=S)cc1 ... > 100 µM
27) COC(=O)n1c(=O)nc2c3c(ncn21)Oc1c(c(-c2ccccc2)nn1-c1ccccc1)C3c1ccc(Cl)cc1 (configuration not stated) ... 2.95 µM
28) CSC(=S)N(C)c1nc(=[N+](C)C)ss1 ... > 100 µM
29) O=C(Nc1ccccc1)N1CCNC1=S ... > 100 µM
30) Cc1[nH]c2ncn(/N=C/c3ccccc3)c(=N)c2c1Cc1ccccc1 ... > 100 µM
31) COc1ccc2[nH]c3c(cnn4cnnc34)c2c1 ... > 100 µM
32) CCN(CC)CCC(=O)Nc1cccc2c1C(=O)c1c(c(O)c3ccccc3c1O)C2=O ... > 100 µM
33) COc1ccc(/C=C2/C(=O)N(C(=O)c3ccc(Cl)cc3)N=C2C)cc1OC ... > 100 µM
34) Cc1ccc2sc3cc(=O)cc(C)c-3nc2c1 ... > 100 µM
35) CN(C(=O)C1=CCCCCC1)c1ccccc1I ... > 100 µM
36) COc1c(O)cc(/C=C/c2cc(O)cc3c2[C@@]2(C(=O)O3)c3c(O)cc(O)cc3OC2c2cccc(O)c2)cc1O (some centres not stated) ... > 100 µM
37) O=C(CCN(CCO)CCO)Nc1ccc2c(c1)C(=O)c1ccc(NC(=O)CCN(CCO)CCO)cc1C2=O ... 19.8 µM
38) N#Cc1nc(-c2cccc(Br)c2)cc(-c2ccc(Nc3nc(N4CCCCC4)nc(N4CCCCC4)n3)cc2)c1N ... 5.53 µM
39) Oc1ccccc1C=Nc1ccc(Oc2ccc(Cl)cc2)c(Cl)c1 ... 36.6 µM
40) O=c1cc/c(=N\Nc2ccccc2)c(=O)/c1=N/Nc1ccccc1 ... > 50 µM
41) CCOC(=O)[C@H]1C[C@@H](C(=O)c2ccccc2)N2N=C(c3ccc(Br)cc3)C=C[C@H]12 ... > 100 µM
42) O=[N+]([O-])c1ccc(Cc2nc3ccccc3s2)cc1 ... > 100 µM

----------
Tested on: SW-620 colon
Test: NCI tumour cell line growth inhibition, 48 h
reported endpoint: GI50

1) CC(C)(C)Cn1c(N)nc2ccc(-c3[nH]c(C(C)(C)C)nc3-c3ccc(F)cc3)nc21 ... 13.6 µM
2) CC[C@@]1(O)C(=O)NCc2c1cc1n(c2=O)Cc2cc3cc4c(cc3nc2-1)OCO4 ... 0.352 µM
3) COc1cc(C)cc2c1OC(c1ccccc1)CC2=O (configuration not stated) ... > 100 µM
4) C[C@]12CC[C@H]3[C@@H](CC=C4C[C@@H](O)CC[C@@]43C)[C@@H]1C/C(=C\c1cccc(OCCN3CCOCC3)c1)[C@@H]2O ... 28.3 µM
5) COc1cc(/C=C2\CCCC3=C2NC(N)=NC3c2cc(OC)c(OC)c(OC)c2)cc(OC)c1OC (configuration not stated) ... 1.08 µM
6) COc1cc2c(/C=C3/C(=O)Nc4ccccc43)c(Cl)n(Cc3ccccc3)c2cc1C ... > 100 µM
7) C#Cc1cccc(NC(=O)Nc2ccc(NC(=O)CCl)cc2)c1 ... 14.9 µM
8) O=C1N=C2c3c(sc4c3CCCC4)N=CN2C1N=Nc1ccc(Cl)cc1 (configuration not stated) ... 23.1 µM
9) COC(=O)Nc1ccc2ccc3c(NC(=O)OC)ccc4ccc1c2c43 (tested in a mixture with another compound) ... 3.9 µM
10) OCCN(CO)CN(CN(CO)CCO)c1nc(N(CN(CO)CCO)CN(CO)CCO)nc(N(CN(CO)CCO)CN(CO)CCO)n1 ... 0.55 ng/mL
11) COc1ccc2c(c1)[nH]c(=O)c1c3cccnc3cn21 ... 0.0327 µM
12) COc1ccc(C2CC(=O)Nc3c2c(C)nn3-c2nc3ccccc3[nH]2)cc1 (configuration not stated) ... 3.33 µM
13) N#C/C(=C\c1cn(-c2ccccc2)c2ccccc12)C(=O)O ... 48.3 µM
14) Nc1nc(-n2cccn2)nc(-n2cccn2)c1Br ... > 100 µM
15) COc1nccc(-c2c(-c3ccc(F)cc3)ncn2C2CCC(O)CC2)n1 (configuration not stated) ... > 70.8 µM
16) OCCNc1nc(NCCO)nc(Nc2ccc(C3=NN(c4cc(Cl)cc(Cl)c4)C(c4ccc(Cl)cc4)C3)cc2)n1 (configuration not stated) ... 2.03 µM
17) O=C(Oc1ccccc1)c1cc(O)c(O)c(O)c1 ... 14.3 µM
